- System: MCF7 breast
- PROCEDURE TEXT: NCI tumour cell line growth inhibition, 48 h
Where a SMILES comes first, the peptide text is derived from it. [ ]: non-standard residue; d: D form. The star is where a group is joined. X28 = COC1=CC(=O)N(C(=O)[C@@H](O*)C(C)C)[C@H]1Cc1ccccc1; NMeL = CN[C@@H](CC(C)C)C(=O)O; Cbz = O=C(OCc1ccccc1)*
MEASURED QUANTITY: TGI

The following compounds have reported results that may help.
CCC(C)c1cnc(CC(C)C)c(=O)[nH]1 (stereo not given) :: > 100 µM
CCN1CCN(c2cc(C)nc(NCc3cc(Nc4ccnc5cc(Cl)ccc45)ccc3F)n2)CC1 :: 16.9 µM
C=C(C)C(=O)N1c2ccc(OC)cc2CC1C(=O)OCC (stereo not given) :: > 100 µM
Cc1[nH]ccc2cc3nc4ccccc4c3cc12 :: 5.63 µM
COc1cc(OC)c(NC2=NCCO2)cc1Cl :: > 100 µM

Lookup: So what's the measured TGI for this one? `CCN1CCN(c2nc(C)cc(N(CCCNc3ccnc4cc(Cl)ccc34)Cc3ccco3)n2)CC1`
Found: 14.8 µM

Lookup: So what's the measured TGI for this one? COc1cc(C2c3cc4c(cc3[C@@H](Nc3ccc(N5CCOCC5)cc3)C3COC(=O)[C@H]23)OCO4)cc(OC)c1O (stereo not given in full)
Found: 14.7 µM

Lookup: So what's the measured TGI for this one? `ClC1=C(Cl)C(Cl)=C(Cl)C1=Cc1ccc(Cl)cc1Cl`
Found: > 100 µM

Lookup: So what's the measured TGI for this one? `CN(C)S(=O)(=O)c1cccc(-c2nc3sc4c(c3c(=O)[nH]2)CCCC4)c1`
Found: > 100 µM

Lookup: So what's the measured TGI for this one? `OCCCCC#Cc1ccccc1C#Cc1cccs1`
Found: 29.1 µM

Lookup: So what's the measured TGI for this one? COC(=O)C1(Cc2ccc3c(c2)CCC3)Cc2cc3c(cc2C1=O)CCC3 (stereo not given)
Found: > 46.4 µM

Lookup: So what's the measured TGI for this one? CC1(C)CC(=O)C2=C(C1)N(c1ccccc1)C1(O)C=CC(=O)C3=C(O)c4ccccc4C(=O)C321 (stereo not given)
Found: > 100 µM

Lookup: So what's the measured TGI for this one? `CCCCCC/C=C\CCCCCCCCCc1c(O)c(OC)cc(O)c1CN(C)C`
Found: 7 µM

Lookup: So what's the measured TGI for this one? `CCOC(=O)c1[nH]n(-c2ccccc2)c(=O)c1C=NC(=S)C(N)=S`
Found: > 100 µM

Lookup: So what's the measured TGI for this one? `Cc1cc2nc(NS(=O)(=O)c3cc(C)c(Cl)cc3S)[nH]c2cc1C`
Found: > 100 µM

Lookup: So what's the measured TGI for this one? `CCOC(=O)c1cn2ncnc(Oc3ccc(NC(=O)NCCN(CC)CC)c(Cl)c3)c2c1C`
Found: 5.21 µM

Lookup: So what's the measured TGI for this one? `COc1ccc(NCc2c(O)ccc3ccccc23)cc1`
Found: > 100 µM

Lookup: So what's the measured TGI for this one? `O=C(O)c1ccc(/C=N\N(CCO)C2=NCCN2)cc1`
Found: > 100 µM

Lookup: So what's the measured TGI for this one? COc1ccc2nc(C3=CN(C4OC(CO)C(O)C(O)C4O)C4C=CC=CC34)sc2c1 (stereo not given)
Found: > 100 µM

Lookup: So what's the measured TGI for this one? COC(=O)C1=C2Nc3ccccc3C23CCN2C(O)C4(CC5CC67CCOC6CCN6CCC8(c9cccc(OC)c9N(C4)C58O)C67)C4OCCC4(C1)C23 (stereo not given)
Found: > 100 µM

Lookup: So what's the measured TGI for this one? `O=C(OCc1c(-c2ccccc2)nn(-c2ccccc2)c1COC(=O)Oc1ccccc1)Oc1ccccc1`
Found: > 100 µM

Lookup: So what's the measured TGI for this one? COC1=CC(=O)N(C(=O)[C@@H](OC(=O)[C@@H]2CCCN2C(=O)[C@@H]2CCCN2C(=O)[C@H](CC(C)C)N(C)C(=O)[C@@H](NC(=O)[C@@H](NC(=O)OCc2ccccc2)C(C)C)C(C)C)C(C)C)[C@H]1Cc1ccccc1 (Cbz-VV[NMeL]PP-X28)
Found: > 100 µM

All values here come from PubChem BioAssay (NCI).
